# System: HEK-293T
# protocol: Multiplex assay against HEK293T
# Type: toxicity, cell-based
# conditionDescription: human, 24 h, 1 µM, compound concentration 1 uM, replicate 2
Listing of recorded Population Healthy Nuclei (%) by entry.
Express it in %; write the number only.

Solved cases (6 shown):
O=C1NC(=O)C(c2cnc3ccccn23)=C1c1cn2c3c(cc(F)cc13)CN(C(=O)N1CCCCC1)CC2 [LY-2090314] ... 44
CCc1cccc(CC)c1NC(=O)c1nn(C)c2c1CCc1cnc(Nc3ccc(N4CCN(C)CC4)cc3OC)nc1-2 ... 27
Cn1nc(C(F)(F)F)cc1-c1cnc(N2CCc3cc(S(=O)(=O)Nc4c(F)cc(Cl)cc4F)cc(N4CCCC4=O)c32)nc1 [TP-020] ... 81
CNc1cc(Oc2cc(C(=O)Nc3cc(N4CCN(C)CC4)cc(C(F)(F)F)c3)ccc2C)ncn1 ... 36
CCc1cccc(CC)c1NC(=O)c1nn(C)c2c1CCc1cnc(Nc3ccc(C(=O)NC4CCN(C)CC4)cc3OC(F)(F)F)nc1-2 ... 59
Cl.Oc1ccc2c3c1O[C@H]1c4[nH]c5c(c4C[C@@]4(O)[C@@H](C2)N(CC2CC2)CC[C@]314)C[C@@]1(O)[C@H]2Cc3ccc(O)c4c3[C@@]1(CCN2CC1CC1)[C@H]5O4 ... 53

The compound listed as `Cc1ccc2nc(NCCN)c3ncc(C)n3c2c1.O=C(O)C(F)(F)F.O=C(O)C(F)(F)F` has a reported Population Healthy Nuclei (%) of 67

The compound listed as CCCn1c(=O)c2[nH]c(-c3cnn(Cc4cccc(C(F)(F)F)c4)c3)nc2n(CC)c1=O [GS 6201] has a reported Population Healthy Nuclei (%) of 64

The compound listed as `COC(=N)c1nc2ccc3ncnc(Nc4ccc(OC)cc4F)c3c2s1` has a reported Population Healthy Nuclei (%) of 82

The compound listed as `O=C1N/C(=N/c2ccccc2F)S/C1=C\c1ccc(C(=O)O)cc1` has a reported Population Healthy Nuclei (%) of 56

The compound listed as CN[C@@H]1C[C@H]2O[C@@](C)([C@@H]1OC)n1c3ccccc3c3c4c(c5c6ccccc6n2c5c31)C(=O)NC4 [STAUROSPORINE] has a reported Population Healthy Nuclei (%) of 30

The compound listed as CCN1CCN(c2ccc(Nc3cc(N(C)C(=O)Nc4c(Cl)c(OC)cc(OC)c4Cl)ncn3)cc2)CC1 [INFIGRATINIB] has a reported Population Healthy Nuclei (%) of 82

The compound listed as O=C(Cc1ccc(-c2ccc(OCCN3CCOCC3)cc2)cn1)NCc1ccccc1 [TIRBANIBULIN] has a reported Population Healthy Nuclei (%) of 29

The compound listed as `O=C(Nc1ccc(Cl)cc1)Nc1cccc(-c2cccc(N3CCCC3)n2)c1` has a reported Population Healthy Nuclei (%) of 60

The compound listed as `O=C(Nc1cccnn1)N1CCC(=Cc2cccc(Oc3ccc(C(F)(F)F)cn3)c2)CC1` has a reported Population Healthy Nuclei (%) of 83

The compound listed as CCOc1cc2ncc(C#N)c(Nc3ccc(OCc4ccccn4)c(Cl)c3)c2cc1NC(=O)/C=C/CN(C)C [NERATINIB] has a reported Population Healthy Nuclei (%) of 50

* * *

Listing of recorded Population Fragmented Nuclei (%) by entry.
# System: U2OS
# protocol: Multiplex assay against U2OS
# Format: toxicity, cell-based
# conditionDescription: human, 48 h, 1 µM, compound concentration 1 uM, replicate 2
Express it in %; write the number only.

O=C(Nc1ccc(Cl)cc1)Nc1cccc(-c2cccc(N3CCCC3)n2)c1 ... 8
CCN1CCN(Cc2ccc(Nc3ncc(F)c(-c4cc(F)c5nc(C)n(C(C)C)c5c4)n3)nc2)CC1.CS(=O)(=O)O ... 25
Cc1ccc(C(=O)Nc2cccc(C(F)(F)F)c2)cc1Nc1nc(-c2cccnc2)nc2c1cnn2C ... 7
O=C(Cc1ccc(-c2ccc(OCCN3CCOCC3)cc2)cn1)NCc1ccccc1 ... 22
CCCn1c(=O)c2[nH]c(-c3cnn(Cc4cccc(C(F)(F)F)c4)c3)nc2n(CC)c1=O ... 2
Cc1cn(-c2cc(NC(=O)c3ccc(C)c(Nc4nccc(-c5cccnc5)n4)c3)cc(C(F)(F)F)c2)cn1 ... 4

The compound listed as `CCCS(=O)(=O)c1nc(NC2CC2)cc(-c2ccc3c(ccn3C3CC(C)(C)NC(C)(C)C3)c2)n1` has a reported Population Fragmented Nuclei (%) of 11

The compound listed as `CCc1cccc(CC)c1NC(=O)c1nn(C)c2c1CCc1cnc(Nc3ccc(C(=O)NC4CCN(C)CC4)cc3OC(F)(F)F)nc1-2` has a reported Population Fragmented Nuclei (%) of 16

* * *

# Tested on: Fibroblast
# protocol: Multiplex assay against human fibroblast
# Assay type: toxicity, cell-based
# conditionDescription: 24 h, 1 µM, compound concentration 1 uM, replicate 1
Listing of recorded Population Hoechst High Intensity Objects (%) by entry.
Express it in %; write the number only.

Solved cases (8 shown):
CCc1cccc(CC)c1NC(=O)c1nn(C)c2c1CCc1cnc(Nc3ccc(N4CCN(C)CC4)cc3OC)nc1-2 ... 10
O=C1N/C(=N/c2ccccc2F)S/C1=C\c1ccc(C(=O)O)cc1 ... 14
CNC(=O)c1ccc(Nc2nc(OC3CCCC3)c3c(-c4ccc5nc(C)oc5c4)c[nH]c3n2)c(OC)c1 ... 10
CCOC(=O)c1c(C)[nH]c2ccc3c(c12)CN1CCc2cc(OC)ccc2C1O3 (stereo not given) ... 13
Cn1nc(C(F)(F)F)cc1-c1cnc(N2CCc3cc(S(=O)(=O)Nc4c(F)cc(Cl)cc4F)cc(N4CCCC4=O)c32)nc1 ... 9
COc1cc2ncnc(Nc3ccc(F)c(Cl)c3)c2cc1NC(=O)/C=C/CN1CCCCC1 [DACOMITINIB ANHYDROUS] ... 30
COC(=N)c1nc2ccc3ncnc(Nc4ccc(OC)cc4F)c3c2s1 ... 19
Cc1cc(C)c(S(=O)(=O)N(Cc2ccc(-c3cccc(S(C)(=O)=O)c3)cc2)Cc2ccc(C(F)(F)F)o2)c(C)c1 ... 9

The compound listed as CN(C)C(=O)C(CCN1CCC(O)(c2ccc(Cl)cc2)CC1)(c1ccccc1)c1ccccc1.Cl [LOPERAMIDE HYDROCHLORIDE] has a reported Population Hoechst High Intensity Objects (%) of 12

The compound listed as CN1C2CCC1CC(OC(c1ccc(F)cc1)c1ccc(F)cc1)C2.Cl (stereo not given) has a reported Population Hoechst High Intensity Objects (%) of 13

The compound listed as `CCn1cc(-c2ccnc3[nH]c(-c4cccc(CN(C)C)c4)cc23)c(-c2ccc(NC(=O)N(C)C)cc2)n1` has a reported Population Hoechst High Intensity Objects (%) of 19

The compound listed as `O=C(Nc1cccnn1)N1CCC(=Cc2cccc(Oc3ccc(C(F)(F)F)cn3)c2)CC1` has a reported Population Hoechst High Intensity Objects (%) of 6

The compound listed as `CCN1CCN(Cc2ccc(Nc3ncc(F)c(-c4cc(F)c5nc(C)n(C(C)C)c5c4)n3)nc2)CC1.CS(=O)(=O)O` has a reported Population Hoechst High Intensity Objects (%) of 21

The compound listed as `CCNc1cc(N[C@H]2CC[C@H](O)CC2)nc(Nc2ccc3c(ccn3Cc3ccccc3)c2)n1` has a reported Population Hoechst High Intensity Objects (%) of 21

The compound listed as `O=C(Nc1ccc(Cl)cc1)Nc1cccc(-c2cccc(N3CCCC3)n2)c1` has a reported Population Hoechst High Intensity Objects (%) of 13

The compound listed as `CCCS(=O)(=O)Nc1ccc(F)c(C(=O)c2c[nH]c3ncc(Cl)cc23)c1F` has a reported Population Hoechst High Intensity Objects (%) of 11

The compound listed as `Cc1ccc(C(=O)Nc2cccc(C(F)(F)F)c2)cc1Nc1nc(-c2cccnc2)nc2c1cnn2C` has a reported Population Hoechst High Intensity Objects (%) of 14

The compound listed as `CCCS(=O)(=O)c1nc(NC2CC2)cc(-c2ccc3c(ccn3C3CC(C)(C)NC(C)(C)C3)c2)n1` has a reported Population Hoechst High Intensity Objects (%) of 15

The compound listed as `NC(=O)c1cccc(-c2cc(Nc3ccc(OC(F)(F)F)cc3)ncn2)c1` has a reported Population Hoechst High Intensity Objects (%) of 12

The compound listed as `Cc1cn(-c2cc(NC(=O)c3ccc(C)c(Nc4nccc(-c5cccnc5)n4)c3)cc(C(F)(F)F)c2)cn1` has a reported Population Hoechst High Intensity Objects (%) of 13

The compound listed as `S=C(NCCCc1c[nH]cn1)NCCCN(Cc1ccc(Cl)c(Cl)c1)c1ccc(Br)cn1` has a reported Population Hoechst High Intensity Objects (%) of 17

The compound listed as `CCOc1cc2ncc(C#N)c(Nc3ccc(OCc4ccccn4)c(Cl)c3)c2cc1NC(=O)/C=C/CN(C)C` has a reported Population Hoechst High Intensity Objects (%) of 18

The compound listed as `CNc1cc(Oc2cc(C(=O)Nc3cc(N4CCN(C)CC4)cc(C(F)(F)F)c3)ccc2C)ncn1` has a reported Population Hoechst High Intensity Objects (%) of 11

The compound listed as `CCn1c(=O)c(-c2ccc(-c3cncs3)cc2Cl)cc2cnc(Nc3ccc(N4CCN(C)CC4)cc3)nc21` has a reported Population Hoechst High Intensity Objects (%) of 16

The compound listed as `Cl.O=C(c1ccc(Nc2nccc(-c3cc4ccccc4s3)n2)cc1)N1CCC(N2CCCC2)CC1` has a reported Population Hoechst High Intensity Objects (%) of 23

The compound listed as `O=C(Cc1ccc(-c2ccc(OCCN3CCOCC3)cc2)cn1)NCc1ccccc1` has a reported Population Hoechst High Intensity Objects (%) of 14

The compound listed as `C=C1/C(=C\C=C2/CCC[C@]3(C)[C@@H]([C@H](C)/C=C/[C@H](C)C(C)C)CC[C@@H]23)C[C@@H](O)C[C@@H]1O` has a reported Population Hoechst High Intensity Objects (%) of 10

The compound listed as `CCCn1c(=O)c2[nH]c(-c3cnn(Cc4cccc(C(F)(F)F)c4)c3)nc2n(CC)c1=O` has a reported Population Hoechst High Intensity Objects (%) of 20

The compound listed as `COc1ccc(S(=O)(=O)N(CCO)c2ccccc2CN(C)C/C=C/c2ccc(Cl)cc2)cc1.O=P(O)(O)O` has a reported Population Hoechst High Intensity Objects (%) of 23

The compound listed as `CCN1CCN(c2ccc(Nc3cc(N(C)C(=O)Nc4c(Cl)c(OC)cc(OC)c4Cl)ncn3)cc2)CC1` has a reported Population Hoechst High Intensity Objects (%) of 36
